- Assay type: in vivo, human
- measurement setup: human, plasma, oral, 0.25 mg, Tmax, Study B part 1, siponimod 0.25 mg single dose, CYP2C9*2/*3, median (range)
value kind: Tmax (h)

molecule	measure unit	recorded result
CCc1cc(/C(C)=N/OCc2ccc(C3CCCCC3)c(C(F)(F)F)c2)ccc1CN1CC(C(=O)O)C1 [Siponimod]	h	5

###

- Type: in vivo, human
- measurement setup: human, plasma, oral, 0.25 mg, Cmax, Study B part 1, siponimod 0.25 mg single dose, CYP2C9*3/*3, geometric mean (CV%)
value kind: Cmax (ng/mL)

smiles representation	value kind	recorded result
CCc1cc(/C(C)=N/OCc2ccc(C3CCCCC3)c(C(F)(F)F)c2)ccc1CN1CC(C(=O)O)C1	Cmax	2.35

###

- Assay type: in vivo, human
- measurement setup: human, plasma, oral, 4 mg

molecule	Vd/F
CCc1cc(/C(C)=N/OCc2ccc(C3CCCCC3)c(C(F)(F)F)c2)ccc1CN1CC(C(=O)O)C1 [Siponimod]	210 L

###

- Format: in vivo, human
- measurement setup: human, plasma, po, 0.5 mg, AUC24, Study B part 2, day 3, CYP2C9*2/*3, mean

compound	AUC, ng·h/mL
CCc1cc(/C(C)=N/OCc2ccc(C3CCCCC3)c(C(F)(F)F)c2)ccc1CN1CC(C(=O)O)C1 [Siponimod]	125

###

- Type: in vivo, human
- measurement setup: human, plasma, oral, 0.25 mg, Tmax, Study B part 1, siponimod 0.25 mg single dose, CYP2C9*3/*3, median (range)

compound	measure unit	Tmax
CCc1cc(/C(C)=N/OCc2ccc(C3CCCCC3)c(C(F)(F)F)c2)ccc1CN1CC(C(=O)O)C1 [Siponimod]	h	4

###

- Format: in vivo, human
- measurement setup: human, plasma, po, 0.5 mg

smiles representation	Tmax
CCc1cc(/C(C)=N/OCc2ccc(C3CCCCC3)c(C(F)(F)F)c2)ccc1CN1CC(C(=O)O)C1	6 h

###

- Type: in vivo, human
- measurement setup: human, plasma, oral, 0.25 mg, AUC∞, Study B part 1, siponimod 0.25 mg single dose, CYP2C9*1/*1, geometric mean (CV%)

smiles representation	AUC(0-inf), ng·h/mL
CCc1cc(/C(C)=N/OCc2ccc(C3CCCCC3)c(C(F)(F)F)c2)ccc1CN1CC(C(=O)O)C1	70.5

###

- Assay type: in vivo, human
- measurement setup: human, plasma, oral, 0.25 mg, AUClast, Study B part 1, siponimod 0.25 mg single dose, CYP2C9*1/*1, geometric mean (CV%)
value kind: AUC(0-t)

smiles representation	recorded result
CCc1cc(/C(C)=N/OCc2ccc(C3CCCCC3)c(C(F)(F)F)c2)ccc1CN1CC(C(=O)O)C1	68.6 ng·h/mL

###

- Format: in vivo, human
- measurement setup: human, plasma, oral, 4 mg

compound	AUC(0-inf) [ng·h/mL]
CCc1cc(/C(C)=N/OCc2ccc(C3CCCCC3)c(C(F)(F)F)c2)ccc1CN1CC(C(=O)O)C1 [Siponimod]	1120

###

- Format: in vivo, human
- measurement setup: human, plasma, oral, 0.25 mg, VZ/F, Study B part 1, siponimod 0.25 mg single dose, CYP2C9*2/*3, geometric mean (CV%)
value kind: Vd/F (L)

smiles representation	measure unit	recorded result
CCc1cc(/C(C)=N/OCc2ccc(C3CCCCC3)c(C(F)(F)F)c2)ccc1CN1CC(C(=O)O)C1	L	127

###

- Assay type: in vivo, human
- measurement setup: human, plasma, oral, 0.25 mg, VZ/F, Study B part 1, siponimod 0.25 mg single dose, CYP2C9*1/*1, geometric mean (CV%)

smiles representation	Vd/F
CCc1cc(/C(C)=N/OCc2ccc(C3CCCCC3)c(C(F)(F)F)c2)ccc1CN1CC(C(=O)O)C1	144 L

###

- Type: in vivo, human
- measurement setup: human, plasma, oral, 0.25 mg, AUC24, Study B part 1, siponimod 0.25 mg single dose, CYP2C9*3/*3, geometric mean (CV%)
value kind: AUC (ng·h/mL)

smiles representation	recorded result
CCc1cc(/C(C)=N/OCc2ccc(C3CCCCC3)c(C(F)(F)F)c2)ccc1CN1CC(C(=O)O)C1	42.7

###

- Format: in vivo, human
- measurement setup: human, plasma, oral, 4 mg, Tmax, Study A, siponimod 4 mg alone, median (range)

smiles representation	Tmax
CCc1cc(/C(C)=N/OCc2ccc(C3CCCCC3)c(C(F)(F)F)c2)ccc1CN1CC(C(=O)O)C1	~4 h

###

- Assay type: in vivo, human
- measurement setup: human, plasma, oral, 0.25 mg, T½, Study B part 1, siponimod 0.25 mg single dose, CYP2C9*3/*3, geometric mean (CV%)
value kind: half-life

compound	recorded result
CCc1cc(/C(C)=N/OCc2ccc(C3CCCCC3)c(C(F)(F)F)c2)ccc1CN1CC(C(=O)O)C1 [Siponimod]	126 h

###

- Format: in vivo, human
- measurement setup: human, plasma, oral, 0.25 mg, T½, Study B part 1, siponimod 0.25 mg single dose, CYP2C9*2/*3, geometric mean (CV%)

smiles representation	half-life
CCc1cc(/C(C)=N/OCc2ccc(C3CCCCC3)c(C(F)(F)F)c2)ccc1CN1CC(C(=O)O)C1	2.12 days

###

- Type: in vivo, human
- measurement setup: human, plasma, oral, 0.25 mg, Cmax, Study B part 1, siponimod 0.25 mg single dose, CYP2C9*2/*3, geometric mean (CV%)

smiles representation	measure unit	Cmax
CCc1cc(/C(C)=N/OCc2ccc(C3CCCCC3)c(C(F)(F)F)c2)ccc1CN1CC(C(=O)O)C1	ng/mL	2.45

###

- Format: in vivo, human
- measurement setup: human, plasma, oral, 0.25 mg, AUC∞, Study B part 1, siponimod 0.25 mg single dose, CYP2C9*2/*3, geometric mean (CV%)
value kind: AUC(0-inf) (ng·h/mL)

compound	recorded result
CCc1cc(/C(C)=N/OCc2ccc(C3CCCCC3)c(C(F)(F)F)c2)ccc1CN1CC(C(=O)O)C1 [Siponimod]	144

###

- Format: in vivo, human
- measurement setup: human, plasma, oral, 0.25 mg, AUClast, Study B part 1, siponimod 0.25 mg single dose, CYP2C9*3/*3, geometric mean (CV%)

compound	measure unit	AUC(0-t)
CCc1cc(/C(C)=N/OCc2ccc(C3CCCCC3)c(C(F)(F)F)c2)ccc1CN1CC(C(=O)O)C1 [Siponimod]	ng·h/mL	266

###

- Assay type: in vivo, human
- measurement setup: human, plasma, oral, 0.25 mg, AUC∞, Study B part 1, siponimod 0.25 mg single dose, CYP2C9*3/*3, geometric mean (CV%)

smiles representation	AUC(0-inf)
CCc1cc(/C(C)=N/OCc2ccc(C3CCCCC3)c(C(F)(F)F)c2)ccc1CN1CC(C(=O)O)C1	271 ng·h/mL

###

- Type: in vivo, human
- measurement setup: human, plasma, oral, 0.25 mg, AUC24, Study B part 1, siponimod 0.25 mg single dose, CYP2C9*2/*3, geometric mean (CV%)
value kind: AUC (ng·h/mL)

smiles representation	value kind	recorded result
CCc1cc(/C(C)=N/OCc2ccc(C3CCCCC3)c(C(F)(F)F)c2)ccc1CN1CC(C(=O)O)C1	AUC	44.7

###

- Format: in vivo, human
- measurement setup: human, plasma, oral, 0.25 mg, Tmax, Study B part 1, siponimod 0.25 mg single dose, CYP2C9*1/*1, median (range)

smiles representation	Tmax, h
CCc1cc(/C(C)=N/OCc2ccc(C3CCCCC3)c(C(F)(F)F)c2)ccc1CN1CC(C(=O)O)C1	4

###

- Type: in vivo, human
- measurement setup: human, plasma, po, 4 mg

compound	AUC(0-t) / ng·h/mL
CCc1cc(/C(C)=N/OCc2ccc(C3CCCCC3)c(C(F)(F)F)c2)ccc1CN1CC(C(=O)O)C1 [Siponimod]	1110
